# Experimental target: Hu DR5 ECD (SEQ ID NO: 105) (Homo sapiens, UniProt O14763, A67V/E190F/V191A)
# Construct: Human DR5-ECD long form polypeptide
# Sequence (O14763 with tags, fused parts or gaps A67V/E190F/V191A): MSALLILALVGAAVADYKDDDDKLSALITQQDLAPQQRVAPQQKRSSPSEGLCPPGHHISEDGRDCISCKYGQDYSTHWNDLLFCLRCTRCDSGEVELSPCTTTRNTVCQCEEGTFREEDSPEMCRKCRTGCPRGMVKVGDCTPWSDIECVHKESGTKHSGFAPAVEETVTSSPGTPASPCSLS
# Test: Phage competition Ic50 ELISA (phagemid binding assay), competitor DR5 ECD
# Condition set: Positive clones, competitor DR5 ECD (Comp/DR5 EcD)
For each of the substances below, state its pIC50.
Give bare numbers, as −log10 of the molar value.

LB933 (GEVCLTTCSRIR)    7.62
2Hd7-2 (CVAMTSCEKLRSCLLL) [Peptide 2Hd7-2]    7.71
G1A (AEVCLTSCSRLR) [Peptide G1A]    8.01
LB882 (GEVCLTSCERLR)    7.83

Batch lookup, pIC50 per entry.
1. 930-S8-4 (AVGEVCLTECSRLIQR) [Peptide 930-S8-4]
2. E2A (GAVCLTSCSRLR) [Peptide E2A]

Out:
1. 7.95
2. 7.31
